I'd be grateful if you could share measured Relative velocity for these entries.
target: UniProt:P27881; assay: Substrate activity against Rat hexokinase II as 1:1 Mg complex at 5.0 mM
Sequence (P27881 whole entry): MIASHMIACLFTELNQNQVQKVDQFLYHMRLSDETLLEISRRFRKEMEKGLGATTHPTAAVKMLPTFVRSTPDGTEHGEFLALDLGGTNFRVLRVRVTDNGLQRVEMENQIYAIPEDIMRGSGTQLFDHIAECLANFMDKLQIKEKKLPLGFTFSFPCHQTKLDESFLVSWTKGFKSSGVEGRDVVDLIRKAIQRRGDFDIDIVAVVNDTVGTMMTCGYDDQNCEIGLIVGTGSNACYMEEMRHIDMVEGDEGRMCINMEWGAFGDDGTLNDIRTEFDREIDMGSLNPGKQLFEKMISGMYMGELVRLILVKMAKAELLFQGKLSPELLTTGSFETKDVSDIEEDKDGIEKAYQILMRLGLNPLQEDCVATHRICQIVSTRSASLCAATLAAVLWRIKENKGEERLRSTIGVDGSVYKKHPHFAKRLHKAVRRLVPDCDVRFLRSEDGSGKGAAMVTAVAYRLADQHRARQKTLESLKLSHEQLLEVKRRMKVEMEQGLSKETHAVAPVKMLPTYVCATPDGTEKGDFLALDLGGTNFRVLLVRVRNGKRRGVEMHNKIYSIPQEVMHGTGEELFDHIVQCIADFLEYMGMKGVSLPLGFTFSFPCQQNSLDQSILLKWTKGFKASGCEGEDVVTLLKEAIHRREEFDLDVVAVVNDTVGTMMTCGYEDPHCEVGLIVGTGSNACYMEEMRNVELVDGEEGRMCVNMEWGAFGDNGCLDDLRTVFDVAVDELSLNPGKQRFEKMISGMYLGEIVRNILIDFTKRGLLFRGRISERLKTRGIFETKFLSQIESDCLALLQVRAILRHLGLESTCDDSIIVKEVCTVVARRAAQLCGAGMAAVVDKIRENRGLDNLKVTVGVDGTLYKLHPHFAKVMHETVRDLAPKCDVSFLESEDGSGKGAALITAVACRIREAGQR
Form field (numeric): enter value without unit.

Lookup: Give recorded Relative velocity with UniProt:P27881 for the following compound: CN(CCCN(C)C(=O)CCCNc1ncnc2c1ncn2[C@@H]1O[C@H](COP(=O)(O)OP(=O)(O)OP(=O)(O)O)[C@@H](O)[C@H]1O)C(=O)CCCNC(=O)CI
Found: 0.43

Lookup: Then what about the compound Nc1ncnc2c1ncn2[C@@H]1O[C@H](COP(=O)(O)OP(=O)(O)OP(=O)(O)O)[C@@H](O)[C@H]1O ?
Found: 1

Lookup: Then what about the compound CN(CCCCN(C)c1ncnc2c1ncn2[C@@H]1O[C@H](COP(=O)(O)OP(=O)(O)OP(=O)(O)O)[C@@H](O)[C@H]1O)C(=O)CCCNC(=O)CI ?
Found: 0.35

Lookup: Then what about the compound O=C(CI)NCCCCCC(=O)NCCCCCCNc1ncnc2c1ncn2[C@@H]1O[C@H](COP(=O)(O)OP(=O)(O)OP(=O)(O)O)[C@@H](O)[C@H]1O ?
Found: 0.63

Lookup: Then what about the compound O=C(CI)NCCCCCCCCNc1ncnc2c1ncn2[C@@H]1O[C@H](COP(=O)(O)OP(=O)(O)OP(=O)(O)O)[C@@H](O)[C@H]1O ?
Found: 1.26

Lookup: Then what about the compound CC(=O)NCCCCCCCCNc1ncnc2c1ncn2[C@@H]1O[C@H](COP(=O)(O)OP(=O)(O)OP(=O)(O)O)[C@@H](O)[C@H]1O ?
Found: 0.6

Lookup: Then what about the compound O=C(CI)NCC(=O)NCCCCCCNc1ncnc2c1ncn2[C@@H]1O[C@H](COP(=O)(O)OP(=O)(O)OP(=O)(O)O)[C@@H](O)[C@H]1O ?
Found: 0.63

Lookup: Then what about the compound Nc1ncnc2c1nc(NCCCCCCCCNC(=O)CI)n2[C@@H]1O[C@H](COP(=O)(O)OP(=O)(O)OP(=O)(O)O)[C@@H](O)[C@H]1O ?
Found: 0.82

Lookup: Then what about the compound O=C(CI)NCCCCCNc1ncnc2c1ncn2[C@@H]1O[C@H](COP(=O)(O)OP(=O)(O)OP(=O)(O)O)[C@@H](O)[C@H]1O ?
Found: 0.6

Lookup: Then what about the compound O=C(CI)NCCCCCC(=O)NCCCNc1ncnc2c1ncn2[C@@H]1O[C@H](COP(=O)(O)OP(=O)(O)OP(=O)(O)O)[C@@H](O)[C@H]1O ?
Found: 0.57

Lookup: Then what about the compound O=C(CI)NCCCC(=O)NCCCCCCNc1ncnc2c1ncn2[C@@H]1O[C@H](COP(=O)(O)OP(=O)(O)OP(=O)(O)O)[C@@H](O)[C@H]1O ?
Found: 0.91

Lookup: Then what about the compound O=C(CI)NCCNc1ncnc2c1ncn2[C@@H]1O[C@H](COP(=O)(O)OP(=O)(O)OP(=O)(O)O)[C@@H](O)[C@H]1O ?
Found: 0.34

Lookup: Then what about the compound CN(CCCCCCN(C)c1ncnc2c1ncn2[C@@H]1O[C@H](COP(=O)(O)OP(=O)(O)OP(=O)(O)O)[C@@H](O)[C@H]1O)C(=O)CCCCCCNC(=O)CI ?
Found: 0.85

---

I'd be grateful if you could share measured inhibition for these entries.
molecular target: Thymidine kinase (Escherichia coli) (UniProt P23331); assay: Compound was tested for the loss of thymidine kinase activity from Escherichia coli after 6 hr at 0 degrees C at 10 mM
Sequence (P23331 whole entry, looked up): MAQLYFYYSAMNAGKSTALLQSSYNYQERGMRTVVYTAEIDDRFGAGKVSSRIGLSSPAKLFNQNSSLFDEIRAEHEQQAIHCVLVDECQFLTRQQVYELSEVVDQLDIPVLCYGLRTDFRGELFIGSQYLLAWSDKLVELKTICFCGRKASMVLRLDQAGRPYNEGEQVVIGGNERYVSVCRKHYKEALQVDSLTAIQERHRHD
Lab book: enter the figure in %, no units written.

Lookup: Sample CN(CCCCN(C)C(=O)CCCNc1ncnc2c1ncn2[C@@H]1O[C@H](COP(=O)(O)OP(=O)(O)OP(=O)(O)O)[C@@H](O)[C@H]1O)C(=O)CCCNC(=O)CI — what was its inhibition?
Found: 0

Lookup: Then what about the compound O=C(CI)NCCCCCCC(=O)NCCCNc1ncnc2c1ncn2[C@@H]1O[C@H](COP(=O)(O)OP(=O)(O)OP(=O)(O)O)[C@@H](O)[C@H]1O ?
Found: 58

Lookup: Then what about the compound CN(CCCCN(C)C(=O)CCCCNc1ncnc2c1ncn2[C@@H]1O[C@H](COP(=O)(O)OP(=O)(O)OP(=O)(O)O)[C@@H](O)[C@H]1O)C(=O)CCCCNC(=O)CI ?
Found: 0

Lookup: Then what about the compound O=C(CI)NCCCCC(=O)NCCCCCCNc1ncnc2c1ncn2[C@@H]1O[C@H](COP(=O)(O)OP(=O)(O)OP(=O)(O)O)[C@@H](O)[C@H]1O ?
Found: 0

Lookup: Then what about the compound Nc1ncnc2c1ncn2[C@@H]1O[C@H](COP(=O)(O)OP(=O)(O)OP(=O)(O)O)[C@@H](O)[C@H]1O ?
Found: 0

Lookup: Then what about the compound CC(=O)NCCCCCC(=O)N(C)CCCCN(C)c1ncnc2c1ncn2[C@@H]1O[C@H](COP(=O)(O)OP(=O)(O)OP(=O)(O)O)[C@@H](O)[C@H]1O ?
Found: 0

---

target: Thymidine kinase (Escherichia coli) (UniProt P23331); experiment: Compound was tested for the initial inhibition of thymidine kinase by 1.4 mM compound in the presence of 5.7 mM ATP
Is inhibition at least 9%? Then met. If not, not met.

Lookup: Quick check, inhibition >= 9%? O=C(CI)NCCCCC(=O)NCCCCCCNc1ncnc2c1ncn2[C@@H]1O[C@H](COP(=O)(O)OP(=O)(O)OP(=O)(O)O)[C@@H](O)[C@H]1O
Found: met

Lookup: Then what about the molecule O=C(CI)NCCCCCCNc1ncnc2c1ncn2[C@@H]1O[C@H](COP(=O)(O)OP(=O)(O)OP(=O)(O)O)[C@@H](O)[C@H]1O ?
Found: not met

Lookup: Then what about the molecule CN(CCCN(C)C(=O)CCCCNc1ncnc2c1ncn2[C@@H]1O[C@H](COP(=O)(O)OP(=O)(O)OP(=O)(O)O)[C@@H](O)[C@H]1O)C(=O)CCCCNC(=O)CI ?
Found: not met

Lookup: Then what about the molecule O=C(CI)NCCCCCC(=O)NCCCNc1ncnc2c1ncn2[C@@H]1O[C@H](COP(=O)(O)OP(=O)(O)OP(=O)(O)O)[C@@H](O)[C@H]1O ?
Found: met

Lookup: Then what about the molecule O=C(CI)NCCCCCCC(=O)NCCCNc1ncnc2c1ncn2[C@@H]1O[C@H](COP(=O)(O)OP(=O)(O)OP(=O)(O)O)[C@@H](O)[C@H]1O ?
Found: met

---

target: Thymidine kinase (Escherichia coli) (UniProt P23331); experiment: Compound was tested for the initial inhibition of thymidine kinase by 1.4 mM compound in the presence of 5.7 mM ATP in Escherichia coli
I'd be grateful if you could share measured inhibition for these entries.
Lab book: enter the figure in %, no units written.

Lookup: Sample CN(CCCCN(C)c1ncnc2c1ncn2[C@@H]1O[C@H](COP(=O)(O)OP(=O)(O)OP(=O)(O)O)[C@@H](O)[C@H]1O)C(=O)CCCCCCNC(=O)CI — what was its inhibition?
Found: 1

Lookup: Then what about the compound O=C(CI)NCCCCCCCNc1ncnc2c1ncn2[C@@H]1O[C@H](COP(=O)(O)OP(=O)(O)OP(=O)(O)O)[C@@H](O)[C@H]1O ?
Found: 10

Lookup: Then what about the compound O=C(CI)NCCCC(=O)NCCCCCCNc1ncnc2c1ncn2[C@@H]1O[C@H](COP(=O)(O)OP(=O)(O)OP(=O)(O)O)[C@@H](O)[C@H]1O ?
Found: 0

---

molecular target: Thymidine kinase (Escherichia coli) (UniProt P23331); experiment: Compound was tested for the lose of thymidine kinase activity after 6 hr, at 0 degrees celsius, with 10 mM ATP derivative. values were expressed in percent
ASSAY READOUT: inhibition (%)
Lab book: enter the figure in %, no units written.

Lookup: Sample O=C(CI)NCCCCCCCCNc1ncnc2c1ncn2[C@@H]1O[C@H](COP(=O)(O)OP(=O)(O)OP(=O)(O)O)[C@@H](O)[C@H]1O — what was its inhibition?
Found: 0

Lookup: Then what about the molecule O=C(CI)NCCCCCC(=O)NCCCCNc1ncnc2c1ncn2[C@@H]1O[C@H](COP(=O)(O)OP(=O)(O)OP(=O)(O)O)[C@@H](O)[C@H]1O ?
Found: 0

Lookup: Then what about the molecule O=C(CI)NCCCCCCC(=O)NCCCCCCNc1ncnc2c1ncn2[C@@H]1O[C@H](COP(=O)(O)OP(=O)(O)OP(=O)(O)O)[C@@H](O)[C@H]1O ?
Found: 0

---

I'd be grateful if you could share measured inhibition for these entries.
molecular target: Thymidine kinase (Escherichia coli); experiment: Compound was tested for the lose of thymidine kinase activity after 6 hr, at 0 degrees celsius, with 10 mM ATP derivative. values were expressed in percent
Lab book: enter the figure in %, no units written.

Lookup: Give recorded inhibition with Thymidine kinase (Escherichia coli) for the following compound: CN(CCCCN(C)c1ncnc2c1ncn2[C@@H]1O[C@H](COP(=O)(O)OP(=O)(O)OP(=O)(O)O)[C@@H](O)[C@H]1O)C(=O)CCCNC(=O)CI
Found: 60

Lookup: Then what about the compound CN(CCCCN(C)c1ncnc2c1ncn2[C@@H]1O[C@H](COP(=O)(O)OP(=O)(O)OP(=O)(O)O)[C@@H](O)[C@H]1O)C(=O)CCCCCNC(=O)CI ?
Found: 53

Lookup: Then what about the compound O=C(CI)NCCCC(=O)NCCCCCCNc1ncnc2c1ncn2[C@@H]1O[C@H](COP(=O)(O)OP(=O)(O)OP(=O)(O)O)[C@@H](O)[C@H]1O ?
Found: 0

Lookup: Then what about the compound CN(CCCN(C)C(=O)CCCNc1ncnc2c1ncn2[C@@H]1O[C@H](COP(=O)(O)OP(=O)(O)OP(=O)(O)O)[C@@H](O)[C@H]1O)C(=O)CCCNC(=O)CI ?
Found: 44

Lookup: Then what about the compound CN(CCCCCCN(C)c1ncnc2c1ncn2[C@@H]1O[C@H](COP(=O)(O)OP(=O)(O)OP(=O)(O)O)[C@@H](O)[C@H]1O)C(=O)CCCCCNC(=O)CI ?
Found: 0

Lookup: Then what about the compound CN(CCCCN(C)c1ncnc2c1ncn2[C@@H]1O[C@H](COP(=O)(O)OP(=O)(O)OP(=O)(O)O)[C@@H](O)[C@H]1O)C(=O)CCCCCCNC(=O)CI ?
Found: 0

Lookup: Then what about the compound CN(CCCCCCN(C)c1ncnc2c1ncn2[C@@H]1O[C@H](COP(=O)(O)OP(=O)(O)OP(=O)(O)O)[C@@H](O)[C@H]1O)C(=O)CCCCCCNC(=O)CI ?
Found: 0

Lookup: Then what about the compound O=C(CI)NCCC(=O)NCCCCCCNc1ncnc2c1ncn2[C@@H]1O[C@H](COP(=O)(O)OP(=O)(O)OP(=O)(O)O)[C@@H](O)[C@H]1O ?
Found: 0
